- experiment summary: Aqueous solubility and native pH in aqueous solution
- Type: physicochemical
- conditions: water; native pH 3.37
Counter-ions that a name gives are not always drawn.
readout type: solubility (µg/mL)
Supply the numeric figure in µg/mL, leaving out any unit text.

Query string: Name the recorded solubility for CN1CCN(c2ccccc2/C=C2\SCCN(c3ccc(Cl)c(Cl)c3)C2=O)CC1 [citrate salt] .
Result string: 1300

Source listed as patent US6825193B2.
